The origin of these recorded values is patent US20240400564A1.

# experimental system: hERG (Homo sapiens)
# measurement protocol: Patch clamp assay (hERG tail currents, whole-cell)
# reported conditions: 30 μM compound
measured parameter: hERG % Remaining

> print(dat)
                          chemical.structure  measured.parameter      value.measured
 1  CCN(C(=O)c1cc(F)ccc1Oc1cncnc1N1CC2(CCN(C[C@@H]3CC[C@@H](NS(=O)(=O)c4cnc(C)o4)CO3)CC2)C1)C(C)C    hERG % Remaining            + (<33%)
 2  CCN(C(=O)c1cc(F)ccc1Oc1cncnc1N1CC2(CCN(C[C@@H]3CC[C@@H](NS(C)(=O)=O)CO3)CC2)C1)C(C)C    hERG % Remaining  ++ (233% and ≤66%)
 3  CCNS(=O)(=O)N[C@@H]1CC[C@@H](CN2CCC3(CC2)CN(c2ncncc2Oc2ccc(F)cc2C(=O)N(C(C)C)C2CC2)C3)OC1    hERG % Remaining          +++ (≥66%)
 4  C[C@@H]1COC[C@@H](C)N1C(=O)c1cc(F)ccc1Oc1cncnc1N1CC2(CCN(C[C@@H]3CC[C@@H](NS(=O)(=O)N4CCC[C@H]4C)CO3)CC2)C1    hERG % Remaining          +++ (≥66%)
 5  CC(C)N(CC(F)F)C(=O)c1cc(F)ccc1Oc1cncnc1N1CC2(CCN(C[C@@H]3CC[C@@H](NS(N)(=O)=O)CO3)CC2)C1    hERG % Remaining          +++ (≥66%)
 6  CO[C@H]1CCN(S(=O)(=O)N[C@@H]2CC[C@@H](CN3CCC4(CC3)CN(c3ncncc3Oc3ccc(F)cc3C(=O)N(C(C)C)C(C)C)C4)OC2)C1    hERG % Remaining          +++ (≥66%)
 7  CCN(C(=O)c1cc(F)ccc1Oc1cncnc1N1CC2(CCN(C[C@H]3CC[C@H](NS(=O)(=O)CC)CC3)CC2)C1)C(C)C    hERG % Remaining  ++ (233% and ≤66%)
 8  CCN(C(=O)c1cc(F)ccc1Oc1cncnc1N1CC2(CCN(C[C@@H]3CC[C@@H](NS(=O)(=O)c4ccccn4)CO3)CC2)C1)C(C)C    hERG % Remaining  ++ (233% and ≤66%)
 9  CC(C)N(C(=O)c1cc(F)ccc1Oc1cncnc1N1CC2(CCN(C[C@@H]3CC[C@@H](NS(=O)(=O)N4CCC4)CO3)CC2)C1)C1CC(F)(F)C1    hERG % Remaining            + (<33%)
10  CC(C)N(CC(F)F)C(=O)c1cc(F)ccc1Oc1cncnc1N1CC2(CCN(C[C@@H]3CC[C@@H](NS(=O)(=O)N(C)CCCO)CO3)CC2)C1    hERG % Remaining          +++ (≥66%)
11  CC(C)N(C(=O)c1cc(F)ccc1Oc1cncnc1N1CC2(CCN(C[C@@H]3CC[C@@H](NS(=O)(=O)N4CCOCC4)CO3)CC2)C1)C(C)C    hERG % Remaining          +++ (≥66%)
12  Cc1ncc(S(=O)(=O)N[C@@H]2CC[C@@H](CN3CCC4(CC3)CN(c3ncncc3Oc3ccc(F)cc3C(=O)N(C(C)C)C(C)C)C4)OC2)o1    hERG % Remaining            + (<33%)

----------
# experimental system: hERG (Homo sapiens)
# measurement protocol: Patch clamp assay (hERG tail currents, whole-cell)
# reported conditions: 30 μM compound
measured parameter: hERG % Remaining

> print(dat)
                                   molecule  value.measured
1  CC(C)N(C(=O)c1cc(F)ccc1Oc1cncnc1N1CC2(CCN(C[C@@H]3CC[C@@H](NS(=O)(=O)N(C)C)CO3)CC2)C1)[C@H]1CCOC1 [Example 177]      +++ (≥66%)
2  CCNS(=O)(=O)N[C@@H]1CC[C@@H](CN2CCC3(CC2)CN(c2ncnnc2Oc2ccc(F)cc2C(=O)N(C(C)C)C(C)C)C3)OC1 [Example 198]      +++ (≥66%)
3  CCN(C(=O)c1cc(F)ccc1Oc1cncnc1N1CC2(CCN(C[C@@H]3CC[C@@H](NS(=O)(=O)c4c[nH]c(=O)cc4C)CO3)CC2)C1)C(C)C [Example 75]      +++ (≥66%)
4  CCN(C(=O)c1cc(F)ccc1Oc1cncnc1N1CC2(CCN(C[C@@H]3CC[C@@H](NS(=O)(=O)c4ccccc4)CO3)CC2)C1)C(C)C [Example 45]        + (<33%)
5  CCN(C(=O)c1cc(F)ccc1Oc1cncnc1N1CC2(CCN(C[C@@H]3CC[C@@H](NS(=O)(=O)c4cccc(OC)c4)CO3)CC2)C1)C(C)C [Example 66]        + (<33%)

----------
# experimental system: hERG (Homo sapiens, UniProt Q12809)
# Sequence (Q12809 whole entry): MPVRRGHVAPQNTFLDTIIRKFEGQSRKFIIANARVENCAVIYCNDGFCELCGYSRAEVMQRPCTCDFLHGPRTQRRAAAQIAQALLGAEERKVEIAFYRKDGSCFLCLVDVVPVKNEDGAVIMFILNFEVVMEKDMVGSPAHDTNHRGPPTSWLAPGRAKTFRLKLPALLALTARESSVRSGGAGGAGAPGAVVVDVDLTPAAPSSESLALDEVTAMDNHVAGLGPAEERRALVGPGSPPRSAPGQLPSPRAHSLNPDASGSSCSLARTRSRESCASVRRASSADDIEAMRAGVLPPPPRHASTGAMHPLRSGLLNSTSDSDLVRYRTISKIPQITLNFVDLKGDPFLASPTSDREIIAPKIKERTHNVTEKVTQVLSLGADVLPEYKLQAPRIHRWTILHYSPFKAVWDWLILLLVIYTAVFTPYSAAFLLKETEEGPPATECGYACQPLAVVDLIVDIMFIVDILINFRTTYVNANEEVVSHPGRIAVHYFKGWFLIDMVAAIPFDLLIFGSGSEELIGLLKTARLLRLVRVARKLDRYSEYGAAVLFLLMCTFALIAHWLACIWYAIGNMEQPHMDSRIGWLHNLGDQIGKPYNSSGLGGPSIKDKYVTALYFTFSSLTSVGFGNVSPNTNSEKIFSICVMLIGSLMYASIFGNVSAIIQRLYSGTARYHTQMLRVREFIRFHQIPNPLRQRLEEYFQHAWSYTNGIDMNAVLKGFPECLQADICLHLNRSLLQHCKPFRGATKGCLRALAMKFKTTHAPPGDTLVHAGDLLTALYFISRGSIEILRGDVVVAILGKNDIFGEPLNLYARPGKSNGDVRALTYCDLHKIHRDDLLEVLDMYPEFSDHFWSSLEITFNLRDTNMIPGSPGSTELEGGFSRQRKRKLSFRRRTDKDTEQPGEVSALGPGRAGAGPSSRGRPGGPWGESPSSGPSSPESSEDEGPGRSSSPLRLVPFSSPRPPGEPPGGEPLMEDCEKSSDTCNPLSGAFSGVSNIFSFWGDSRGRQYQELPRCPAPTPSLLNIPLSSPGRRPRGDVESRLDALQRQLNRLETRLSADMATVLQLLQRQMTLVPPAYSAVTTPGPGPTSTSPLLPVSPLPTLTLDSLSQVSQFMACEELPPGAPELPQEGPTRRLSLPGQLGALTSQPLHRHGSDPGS
# measurement protocol: Patch clamp assay (hERG tail currents, whole-cell)
# reported conditions: 10 μM compound
measured parameter: hERG % Remaining

> print(dat)
                                    compound      value.measured
 1  CCN(C(=O)c1cc(F)ccc1Oc1cncnc1N1CC2(CCN(C[C@@H]3CC[C@@H](NS(=O)(=O)NC)CO3)CC2)C1)C(C)C [Example 76]          +++ (≥66%)
 2  CCN(C(=O)c1cc(F)ccc1Oc1cncnc1N1CC2(CCN(C[C@@H]3CC[C@@H](NS(=O)(=O)C4CC4)CO3)CC2)C1)C(C)C [Example 4]          +++ (≥66%)
 3  CC(C)N(C(=O)c1cc(F)ccc1Oc1cncnc1N1CC2(CCN(C[C@@H]3CC[C@@H](NS(=O)(=O)c4cnn(C(F)F)c4)CO3)CC2)C1)C(C)C [Example 85]  ++ (233% and ≤66%)
 4  CCN(CC)S(=O)(=O)N[C@@H]1CC[C@@H](CN2CCC3(CC2)CN(c2ncncc2Oc2ccc(F)cc2C(=O)N(C(C)C)[C@@H]2CCOC2)C3)OC1 [Example 165]          +++ (≥66%)
 5  CCNS(=O)(=O)N[C@@H]1CC[C@@H](CN2CCC3(CC2)CN(c2ncncc2Oc2ccc(F)cc2C(=O)N(CC(F)F)C(C)C)C3)OC1 [Example 147]          +++ (≥66%)
 6  CNS(=O)(=O)N[C@@H]1CC[C@@H](CN2CCC3(CC2)CN(c2ncncc2Oc2ccc(F)cc2C(=O)N(C(C)C)C2CC(F)(F)C2)C3)OC1 [Example 154]          +++ (≥66%)
 7  CCN(C(=O)c1cc(F)ccc1Oc1cncnc1N1CC2(CCN(C[C@@H]3CC[C@@H](NS(=O)(=O)N4CCC4)CO3)CC2)C1)C(C)C [Example 69]          +++ (≥66%)
 8  CCN(C(=O)c1cc(F)ccc1Oc1cncnc1N1CC2(CCN(C[C@@H]3CC[C@@H](NS(=O)(=O)N(C)C)CO3)CC2)C1)C(C)C [Example 49]          +++ (≥66%)
 9  CC(C)N(CCC#N)C(=O)c1cc(F)ccc1Oc1cncnc1N1CC2(CCN(C[C@@H]3CC[C@@H](NS(=O)(=O)c4ccccc4)CO3)CC2)C1 [Example 136]          +++ (≥66%)
10  CCN(C(=O)c1cc(F)ccc1Oc1cncnc1N1CC2(CCN(C[C@H]3CC[C@H](NS(=O)(=O)CC)CC3)CC2)C1)C(C)C [SNDX-5613]  ++ (233% and ≤66%)
11  CC(C)N(CC(F)F)C(=O)c1cc(F)ccc1Oc1cncnc1N1CC2(CCN(C[C@@H]3CC[C@@H](NS(=O)(=O)N(C)C)CO3)CC2)C1 [Example 95]          +++ (≥66%)
12  CCN(C(=O)c1cc(F)ccc1Oc1cncnc1N1CC2(CCN(C[C@@H]3CC[C@@H](NS(=O)(=O)c4cnn(C)c4)CO3)CC2)C1)C(C)C [Example 68]          +++ (≥66%)

----------
# experimental system: hERG (Homo sapiens, UniProt Q12809)
# measurement protocol: Patch clamp assay (hERG tail currents, whole-cell)
# reported conditions: 30 μM compound
measured parameter: hERG % Remaining

> print(dat)
                         chemical.structure  measured.parameter      value.measured
1  CCNS(=O)(=O)N[C@@H]1CC[C@@H](CN2CCC3(CC2)CN(c2ncncc2Oc2ccc(F)cc2C(=O)N(C(C)C)C(C)C)C3)OC1    hERG % Remaining          +++ (≥66%)
2  CC(C)N(CC(F)F)C(=O)c1cc(F)ccc1Oc1cncnc1N1CC2(CCN(C[C@@H]3CC[C@@H](NS(=O)(=O)c4cnn(C)c4)CO3)CC2)C1    hERG % Remaining          +++ (≥66%)
3  CC(C)N(C(=O)c1cc(F)ccc1Oc1cncnc1N1CC2(CCN(C[C@@H]3CC[C@@H](NS(=O)(=O)N4CC5(CCOC5)C4)CO3)CC2)C1)C(C)C    hERG % Remaining          +++ (≥66%)
4  CCN(C(=O)c1cc(F)ccc1Oc1cncnc1N1CC2(CCN(C[C@@H]3CC[C@@H](NS(=O)(=O)N4CCOCC4)CO3)CC2)C1)C(C)C    hERG % Remaining  ++ (233% and ≤66%)
5  CCN(CC)S(=O)(=O)N[C@@H]1CC[C@@H](CN2CCC3(CC2)CN(c2ncncc2Oc2ccc(F)cc2C(=O)N(C(C)C)[C@@H]2CCOC2)C3)OC1    hERG % Remaining  ++ (233% and ≤66%)
6  CC(C)N(CC(F)(F)F)C(=O)c1cc(F)ccc1Oc1cncnc1N1CC2(CCN(C[C@@H]3CC[C@@H](NS(=O)(=O)N(C)C)CO3)CC2)C1    hERG % Remaining  ++ (233% and ≤66%)
